Values compiled from ChEMBL document CHEMBL1201862.

System: IGROV-1
Assay: NCI tumour cell line growth inhibition, 48 h
The source made the active and inactive calls. Cut-off read from the data, not from the text of the source: active = GI50 up to about 1.1 µM and inactive = higher.
Outcomes: True for active, False for inactive

| compound | label |
| --- | --- |
| CC(=O)c1c2c(cc3c1CC1(Cc4cc5c(cc4C1)CCC5)C3)CCC2 | False |
| CC1=CC(C2/C(=N/O)C=C(C)CC2(C)C)C(O)C(C)(C)C1 (stereo unspecified) | False |
| CCOC(=O)CSc1nnc(C(Sc2nc(-c3ccccc3)c(-c3ccccc3)[nH]2)C(C)C)n1-c1ccccc1 (stereo unspecified) | False |
| N/C(=N\N=C\c1nc2ccccc2o1)c1cnccn1 | False |
| COc1ccc(N2CCOCC2)cc1 | False |
| O=c1[nH][nH]c(=O)c2c1ccc1oc3ccccc3c12 | False |
| O=C1CC(c2cccc([N+](=O)[O-])c2)C2(C(=O)NC(=S)NC2=O)C(c2cccc([N+](=O)[O-])c2)C1 (stereo unspecified) | False |
| C/N=C(\N)N/N=C(\C)c1ccc2oc3ccc(/C(C)=N/N/C(N)=N/C)cc3c2c1 | False |
| Cc1cc(C(=O)CCCCOc2ccc(C3=NCCO3)cc2)c(C)n1C | False |
| NC(=O)N/N=C1/CCCC/C1=C\c1ccccc1 | False |
| CC(C(N)C(=O)NC(C(=O)O)C1OC(n2ccc(=O)[nH]c2=O)C(O)C1O)C(O)c1ccc(O)cn1 (stereo unspecified) | False |
| CC(C)/C(Cl)=N\OC(=O)Nc1ccc(F)c([N+](=O)[O-])c1 | False |
| O=C(/C=C/c1ccsc1)c1ccsc1 | False |
| Clc1ccc(C(OCn2ccnc2)c2nc3ccccc3[nH]2)c(Cl)c1 (stereo unspecified) | False |
| CC1=C(C(=O)Nc2ccc(Cl)c(C(=O)OC(C)C)c2)SCCO1 | False |
| c1ccc2c(c1)Sc1ccccc1N2CC1CN2CCC1CC2 (stereo unspecified) | False |
| CC(=O)Nc1ccc2nc(-c3ccccn3)c(-c3ccccn3)nc2c1 | False |
| CC(C)(C)c1cc2nc(c1)C(C(F)(F)F)(C(F)(F)F)OB(Br)OC2(C(F)(F)F)C(F)(F)F | True |
| C(=N\Cc1ccccc1)/c1ccccc1-c1ccccc1/C=N/Cc1ccccc1 | False |
| CCOC(=O)C#Cc1ccc([N+](=O)[O-])cc1 | False |
| CC1=NN(c2cccc(Cl)c2)C2(SCC(=O)N2c2nc3ccccc3s2)/C1=C\c1ccccc1 (stereo unspecified) | False |
| CCOC(=O)C12C3CCC1C2C(=O)C3 (stereo unspecified) | False |
| CCOC(=O)C1C(=S)NC(=O)C1C#N (stereo unspecified) | False |
| COc1c(CC(C)=O)c2ccccc2n1C(C)=O | False |
| CCN(CC)CCN1C(=O)C(=O)N(c2cccc3ccccc23)C1=O | False |
| COc1ccc(/C=C/c2cnnc3ccccc23)cc1OC | False |
| C[n+]1ccccc1/C=C/c1ccc2c(c1)OCO2 | False |
| CN(CCO)c1nc(N)cc(=O)[nH]1 | False |
| Cc1ccc(S(=O)(=O)C(CC(=O)N2CCCC2)C(=O)c2ccccc2)cc1 (stereo unspecified) | False |
| NNC(=O)CCC(=O)Nc1cc(Cl)c(Cl)cc1Cl | False |
| N#CI1OC(=O)c2ccccc21 | False |
| Cc1cc(N)ccc1C=O | False |
| Cc1ccccc1CN1CC=c2ccccc2=N1 | False |
| CC1=NN(c2ccccc2)C(=O)/C1=C\c1ccc([N+](=O)[O-])cc1 | False |
| CCCCN(CCCC)c1ccc(/N=N/c2ccc(S(=O)(=O)O)cc2)cc1 | False |
| CCOC(=O)/C(C#N)=C/Nc1c(C)n(C)n(-c2ccccc2)c1=O | False |
| Nc1ccc(-c2nc3ccc(F)cc3s2)cc1I | True |
| COc1ccc(NC(=S)Nc2cc(C)ccn2)cc1 | False |
| CNCCCCN(C)/[N+]([O-])=N\O | False |
| CC(C)(C)N1C(=O)c2ccccc2C1(O)C(F)(F)F (stereo unspecified) | False |
| CC(=O)Nc1ccc(-c2nc3ccccc3s2)cc1C | False |
| CCOC(=O)c1nc2ccc(C(F)(F)F)cc2nc1Oc1cc(OC)cc(OC)c1 | False |
| CN(C)C(CN)CC1=C(CC(CN)N(C)C)CCC1 (stereo unspecified) | False |
| CC1C=C(NCC2(CO)CCC2)N=C(N)N1 (stereo unspecified) | False |
| Cc1cc2c(C(C)C)c(O)c(O)c(/C=N/c3cc(C(F)(F)F)ccc3Cl)c2c(O)c1-c1c(C)cc2c(C(C)C)c(O)c(O)c(/C=N/c3cc(C(F)(F)F)ccc3Cl)c2c1O | False |
| O=C(c1c(O)cc(O)cc1O)C1Cc2ccccc21 (stereo unspecified) | False |

* * *

System: MDA-MB-435
Assay: NCI tumour cell line growth inhibition, 48 h
Calls of active or inactive are those of the source. No stated cut-off is given here; in the data, active = GI50 up to about 1.1 µM and inactive = higher.
Outcomes: active, inactive

| molecule | label |
| --- | --- |
| CCCCCCC(C)c1ccc2c(c1)C(=O)c1nc3ccncc3c(=O)n1-2 (stereo unspecified) | active |
| Nc1cccc(-c2cc(O)c3cc4c(cc3n2)OCO4)c1 | active |
| [O-][S+](Nc1ccccc1)c1ccccc1Oc1ccccc1 (stereo unspecified) | inactive |
| CC1=C([S+]([O-])c2ccc(C)cc2)CCC2(CCCCO2)O1 (stereo unspecified) | inactive |
| N/C(=N\N=C\c1nc2ccccc2o1)c1cnccn1 | inactive |
| O=C1Oc2ccccc2C(=O)/C1=C/N1C(=O)N/C(=C\c2cccc(O)c2)C1=O | inactive |
| CSc1c(C(=O)Nc2ccccc2)c(N)n(N)c(=O)c1C#N | inactive |
| COC(=O)/C=C1/CCC(C)(C(=O)NS(=O)(=O)c2ccc(C)cc2)C1(C)C (stereo unspecified) | inactive |
| COc1cc(/C=C2\N=C(c3ccccc3)N(c3nc4cc(C)c(C)cc4s3)C2=O)cc(OC)c1OC | inactive |
| O=C(Nc1sccc1S(=O)(=O)c1ccccc1)c1ccccc1 | inactive |
| NS(=O)(=O)c1ccc(Nc2c3ccccc3nc3c(C(=O)NCCO)cccc23)cc1 | active |

* * *

Test system: OVCAR-3
Test: NCI tumour cell line growth inhibition, 48 h
The source made the active and inactive calls. Cut-off read from the data, not from the text of the source: active = GI50 up to about 1.1 µM and inactive = higher.
quantity.name: GI50

| molecule | system | value.measured |
| --- | --- | --- |
| CCCCCCCCCCCCCCCCP(=O)(O)OP(=O)(O)OCC1OC(n2ccc(N)nc2=O)C(O)C1O (stereo not given) | OVCAR-3 | 60 µM (inactive) |
| O=C(Nc1c(O)[nH]c(=S)[nH]c1=O)c1ccccn1 | OVCAR-3 | > 100 µM (inactive) |
| COC(=O)C1C(=O)C=CN([C@H](C)c2ccccc2)[C@@H]1Cc1ccc(OC)c(OCc2ccccc2)c1I (stereo not given in full) | OVCAR-3 | 14.6 µM (inactive) |
| CCOC(=O)Cc1csc(N/C=C2/C(=O)Oc3ccccc3C2=O)n1 | OVCAR-3 | 25.9 µM (inactive) |
| CNC1NC(=O)c2ccccc2N1Cc1ccc(F)cc1 (stereo not given) | OVCAR-3 | > 100 µM (inactive) |

* * *

Test system: OVCAR-5
Test: NCI tumour cell line growth inhibition, 48 h
Active and inactive are the calls of the source. Rule as the data show it: active = GI50 up to about 1.1 µM and inactive = higher.
Outcomes: active, inactive

| compound | label |
| --- | --- |
| COc1ccc(/C=C2\N=C(SC)N(CN3CCOCC3)C2=O)cc1 | inactive |
| O=S(=O)(O)/C(=N\c1cccc(Cc2ccccc2)c1)Nc1cccc(Cc2ccccc2)c1 | inactive |
| CN(C)CCNc1ccc2c(=O)n(CCN(C)C)c(=O)n3c4ccc(N)cc4c(=O)c1c23 | active |
| CCN(CC)C(=C(C(Cl)=C(Cl)Cl)[N+](=O)[O-])N(CC)CC | inactive |
| NCC(O)CSCc1ccc(Cl)cc1 (centres undefined) | inactive |
| O=C(Nc1c(O)[nH]c(=S)[nH]c1=O)c1ccccn1 | inactive |
| OC1CCCCCCCCCCC1[S+]1CCCC1.O[B-](F)(F)F (centres undefined) | inactive |
| COc1ccccc1/C=C1\CCC(CCN2CCOCC2)C1=O (centres undefined) | inactive |
| O=C1/C(=C/c2ccc(O)cc2)Oc2ccccc21 | inactive |
| CC1=NN(c2ccccc2)C(=O)/C1=C\c1ccc([N+](=O)[O-])cc1 | inactive |
| O=C(N/N=C/c1ccc(Cl)cc1)c1cc(I)cc(I)c1O | inactive |
| CC1(C)C2CC(=O)C1(C)C(O)C2Br (centres undefined) | inactive |
| O=S(=O)(O)c1ccc(O)c2ncc(Cl)cc12 | inactive |
| CC(=O)OC1(C#N)CC2OC1C1C2N1C(=O)OC(C)(C)C (centres undefined) | inactive |
| O=C(c1ccccc1)c1ccc(OCCOc2ccc(Nc3ccccc3)cc2)cc1 | inactive |
| CCOC(=O)c1nc2ccc(C(F)(F)F)cc2nc1Oc1cc(OC)cc(OC)c1 | inactive |
| COC1C2c3ccccc3C(C#N)(Cc3ccc4c(c32)OCO4)N1C(=O)c1ccccc1 (centres undefined) | inactive |
| O=C(Nc1cccc(Cl)c1)Nn1cnnc1 | active |
| CCCCN(CCCC)c1ccc(/N=N/c2ccc(S(=O)(=O)O)cc2)cc1 | inactive |
| CCOC(=O)C12C3CCC1C2C(=O)C3 (centres undefined) | inactive |
| O=c1[nH]cc(F)c(=O)[nH]1 [FLUOROURACIL] | inactive |
| CC(C)(C)OC1=C(OC(C)(C)C)C(O)(c2ccccc2)C1=O (centres undefined) | inactive |
| COc1ccc(C2CCC(Cl)(OC)CC2C=O)cc1 (centres undefined) | inactive |
| COC(=O)CN1CCN(c2cccc3c2CCCC3)CC1 | inactive |
| C=C1CN(Cc2ccccc2)[C@@H]2CCCCC[C@H](C#N)[C@H]12 | inactive |
| CC1(C)CCc2ccc(OCCC(=O)O)cc2O1 | inactive |
| C=C[C@H]1CN2CCc3c([nH]c4c([C@H]5CCCN5C)c(O)ccc34)[C@@H]2C[C@@H]1C[C@H]1c2[nH]c3ccccc3c2CCN1C [STRYCHNOPENTAMINE] | inactive |
| O=[N+]([O-])c1ccc2nc(O)n[n+]([O-])c2c1 | inactive |
| O=C1CCC2(c3ccc(Cl)cc3)Nc3ncccc3N12 (centres undefined) | inactive |
| Cc1ccc(/C=C/C(=O)c2sc(-c3nc(C)c(C(=O)/C=C/c4ccc(C)cc4)s3)nc2C)cc1 | inactive |
| Nc1ccccc1CCN1CCN(CCCc2ccccc2)CC1 | inactive |
| N#Cc1nc(Cc2ccccc2)oc1N | inactive |
| COC(=O)[C@]1(NC(=O)c2ccccc2)C[C@H]1C=O | inactive |
| O=C1NC(=O)C(Cc2ccccc2)(c2cccnc2)N1 (centres undefined) | inactive |
| Brc1ccccc1/C=C\C1(c2ccccc2)OCCO1 | inactive |
| S=C(Nc1ccccc1)N1N=C2c3ccccc3CC[C@H]2[C@@H]1c1ccccc1 | inactive |
| Cc1ccccc1Nc1cn(CCOc2ccccc2)c(=O)n(CCOc2ccccc2)c1=O | inactive |
| O=C(c1ccccc1)c1ccc2c(c1)nc1n2C(c2c(Cl)cccc2Cl)SC1 (centres undefined) | inactive |
| Cc1ccc([N+](=O)[O-])cc1S(=O)(=O)Nc1ccc(C2=NNC(c3ccccc3)C2)cc1 (centres undefined) | inactive |
| c1ccc2c(c1)Sc1ccccc1N2CC1CN2CCC1CC2 (centres undefined) [MEQUITAZINE] | inactive |
| CCC1CC2CN3CCc4c([nH]c5c(-c6c(OC)ccc7c8c([nH]c67)[C@]6(C(=O)OC)CC7CC(CC)C6N(CC8)C7)c(O)ccc45)[C@](C(=O)OC)(C2)C13 (some centres undefined) | inactive |
| C[N+](C)(C)C(C1=CCCC1=O)c1ccccc1 (centres undefined) | inactive |
| COc1ccc(/C=C2\CN(C)CC3C2=NC(=S)NC3c2ccc(OC)cc2)cc1 (centres undefined) | inactive |
| CC1=C(C(=O)Nc2ccc(Cl)c(C(=O)OC(C)C)c2)SCCO1 | inactive |
